Origin of the recorded values: PubChem BioAssay AID1814

- methodSummary: Activators via SNCA 5'UTR binding, MLPCN (AID 1814)
- studyConditions: alpha-synuclein 5'UTR reporter, activators screen; tested at 7.5 µM
In all, about 300,000 compounds went through this assay and about 22,000 (7.3%) were called active. Roughly 2% stayed inconclusive and do not appear here. Cut-off read from the data, not from the text of the source: active = activity score below about -60%; inconclusive = mostly about -28% to -61%; inactive = positive scores. Only a selection was taken, and actives are over-represented in it overall.
A correct response names exactly one class from active, inactive

Previously resolved entries follow.
> print(dat)
                                   compound  classassignment
1     O=C(CSc1ccccn1)Nc1nc2c(ccc3ccccc32)s1           active
2  O=C(Cc1cccc2ccccc12)NNC(=O)Nc1ccc(Cl)cc1           active
3    O=[N+]([O-])c1ccccc1N/N=C1\CCc2ccccc21           active
4          COc1ccc(C(=O)NC(=S)NC2CCCCC2)cc1           active
5         c1ccc2c(C[n+]3csc4ccccc43)cccc2c1           active
6            COc1ccc(NC(=O)c2ccc(OC)cc2)cc1           active

Outcome? O=C(Nc1ccc2oc(-c3ccc4ccccc4c3)nc2c1)c1cccs1 active

Outcome? Cc1ccc(O)c(-c2cc(C(=O)NCc3ccccc3)[nH]n2)c1 active

Outcome? COc1ccc(-c2c(C#Cc3ccccc3)c3ccccc3n2C)cc1 active

Outcome? Clc1ccc(-c2csc(-c3ccncc3)n2)cc1 active

Outcome? Cc1ccc(-n2ncc3c2ncn2nc(-c4ccco4)nc32)c(C)c1 active

Outcome? CCOc1ccc(N2C(=O)CC(N(O)c3ccccc3)C2=O)cc1 (centres undefined) active

Outcome? Cc1c(NC(=O)c2cc(-c3ccc(Cl)s3)nc3ccccc23)c(=O)n(-c2ccccc2)n1C active

---

- methodSummary: Activators via SNCA 5'UTR binding, MLPCN (AID 1814)
- studyConditions: alpha-synuclein 5'UTR reporter, activators screen; stronger effect = lower value; tested at 7.5 µM
The whole screen tested about 300,000 compounds, of which about 22,000 (7.3%) were called active. Roughly 2% stayed inconclusive and do not appear here. Many of the other results were omitted from the sample, so actives are more common in it than they were.
measure: activity score (%)
Provide the reading as a plain figure in %.

> print(dat)
                                   molecule  value
1  CC(Cc1cccs1)NC(=O)NC1CCCCC1 (configuration not stated)  -95.9
2  CC(Cc1cccs1)NC(=O)c1cccc(Cl)c1 (configuration not stated)  -95.5
3     COc1cccc(C(=O)Nc2cc3c(cc2Br)OCCCO3)c1  -98.2
4  O=C(c1cc(-c2ccc(O)cc2)on1)N1CCCc2ccccc21  -95.6

Look up and state reported activity score for COc1cccc(C(=O)Nc2ccc(NC(=O)c3ccco3)cn2)c1 -135

Look up and state reported activity score for Cc1ccc(/C=N/NC(=O)CSc2nc3ccccc3o2)cc1 -108

Look up and state reported activity score for CCC(C)Cn1c(O)cc2nn(-c3nc4ccccc4s3)c(=O)c-2c1C (configuration not stated) 97.8

Look up and state reported activity score for Cc1ccccc1C(=O)Nc1ccc(N2CCCCCC2)cc1 -160

Look up and state reported activity score for Cc1ccc(Oc2nc(-c3ccccn3)nc3ccccc23)cc1 -92.6

---

- methodSummary: Activators via SNCA 5'UTR binding, MLPCN (AID 1814)
- studyConditions: alpha-synuclein 5'UTR reporter, activators screen; tested at 7.5 µM
About 22,000 (7.3%) of roughly 300,000 compounds were called active. Inconclusive results (about 2%) are left out. No stated cut-off is given here; in the data, active means activity score below about -60%; inconclusive means mostly about -28% to -61%; inactive means positive scores. The entries come from a sample that favours actives as a whole.
A correct response names exactly one class from active, inactive

> print(dat)
                                  molecule  classassignment
1   Cc1cccc(NC(=O)c2ccc([N+](=O)[O-])o2)c1           active
2  O=C1c2ccccc2C(=O)c2c1cccc2N1CCN(CCO)CC1           active
3    Cc1cccc(NC(=O)NC(=S)NC(=O)c2ccccc2)c1           active
4    CCc1cc(C(N)=O)c(NC(=O)c2ccc(OC)cc2)s1           active
5       CCc1ccccc1OCC(=O)Nc1ccc2c(c1)OCCO2           active

Outcome? CCCCC(=O)Nc1ccc2c(c1)OCCO2 active

Outcome? O=C1c2ccccc2NC(c2ccccc2O)N1NS(=O)(=O)c1ccccc1 (stereo not given) active

Outcome? Oc1oc(-c2ccccc2Br)nc1/C=N/c1ccccn1 active

Outcome? COC(=O)CCNc1ccc2c(c1)OCCO2 active

---

- methodSummary: Activators via SNCA 5'UTR binding, MLPCN (AID 1814)
- studyConditions: alpha-synuclein 5'UTR reporter, activators screen; stronger effect = lower value; tested at 7.5 µM
Hit rate of the full screen: of about 300,000 compounds, about 22,000 (7.3%) were called active. Another 2% or so got no clear call; they are omitted. This excerpt belongs to a sample that is enriched for actives.
The entries below come with measured activity score values attached.
Provide the reading as a plain figure in %.

> print(dat)
                                   molecule  resultunits  value
1  Cc1ccnc(NC(=O)c2ccc(Cl)c([N+](=O)[O-])c2)c1            %  -78.7
2               Clc1ccc(Nc2ccc3ccccc3n2)cc1            %  -61.9

Look up and state reported activity score for COc1ccc(OCC(=O)Nc2cc(C)c(Cl)cc2OC)c([N+](=O)[O-])c1 -102

Look up and state reported activity score for Cc1ccn2cc(-c3nonc3C)cc2c1 -128

Look up and state reported activity score for Nc1c(C(=O)NCc2ccccc2)sc2nc3c(cc12)C(=O)CCC3 -63.1

Look up and state reported activity score for Cc1ccc(S(=O)(=O)NC(=O)Nc2nc(-c3ccc(F)c(F)c3)cs2)cc1 -61.5

Look up and state reported activity score for COc1ccc(C2CC(c3cccs3)=Nc3ccccc3S2)cc1OC (configuration not stated) -90.7

Look up and state reported activity score for CCc1cc2c(=O)c(-c3ccon3)c(N)oc2cc1OC -160

Look up and state reported activity score for O=C(c1cccs1)N1CCCC(c2nc(-c3ccc(F)cc3)no2)C1 (configuration not stated) -91.6

Look up and state reported activity score for O=C(CSCc1ccccc1)Nc1ccccc1 -126

Look up and state reported activity score for NC(=O)c1ccccc1N=Cc1ccc2ccccc2c1 -211

Look up and state reported activity score for Nc1ccc(C(=O)Nc2ccccc2N)cc1 -714

---

- methodSummary: Activators via SNCA 5'UTR binding, MLPCN (AID 1814)
- studyConditions: alpha-synuclein 5'UTR reporter, activators screen; tested at 7.5 µM
Out of some 300,000 compounds screened, about 22,000 (7.3%) were called active. About 2% were inconclusive and are not listed. No stated cut-off is given here; in the data, active means activity score below about -60%; inconclusive means mostly about -28% to -61%; inactive means positive scores. The entries come from a sample that favours actives as a whole.
A correct response names exactly one class from true (1) = active, false (0) = inactive

Previously resolved entries follow.
> print(dat)
                                    molecule  classassignment
 1  O=[N+]([O-])c1ccc(O)c(/C=N/Nc2ccccc2[N+](=O)[O-])c1         true (1)
 2   O=C(NCc1cccnc1)C(=O)Nc1nc(-c2ccccc2)cs1         true (1)
 3       Cc1ccc(C(=O)Nc2nnc(-c3cccs3)s2)cc1C         true (1)
 4  Cc1ccnc(NC(=O)CCNS(=O)(=O)c2ccc(C)c(C)c2)c1         true (1)
 5   Nc1ccccc1SCc1cc([N+](=O)[O-])cc2c1OCOC2         true (1)
 6  CCCC1=Nc2cc(C(=O)NCc3ccco3)ccc2Sc2ccccc21        false (0)
 7             O=C(CSc1nnnn1C1CCCC1)N1CCCCC1         true (1)
 8      Cc1ccc(Cl)c(OCC(=O)N2CCc3ccccc3C2)c1         true (1)
 9          Cc1ccc(C(=O)NC(=S)Nc2ccccc2C)cc1         true (1)
10   CC(C)(C)c1ccc(C(=O)NNC(=O)Cc2ccccc2)cc1         true (1)

Outcome? Brc1ccccc1/C=N/Nc1nc2ccccc2o1 true (1)

Outcome? Cc1ccc(NC(=O)Nc2ccccc2)c(Br)c1 true (1)

Outcome? CCOC(OCC)c1ccc(/C=C\c2nccc(N)n2)cc1 true (1)

Outcome? Oc1ccc(-c2csc(Nc3cccnc3)n2)cc1 true (1)

Outcome? O=C(Nc1ccon1)c1sc2ccccc2c1Cl true (1)

---

The entries below come with measured activity score values attached.
- methodSummary: Activators via SNCA 5'UTR binding, MLPCN (AID 1814)
- studyConditions: alpha-synuclein 5'UTR reporter, activators screen; stronger effect = lower value; tested at 7.5 µM
In all, about 300,000 compounds went through this assay and about 22,000 (7.3%) were called active. About 2% were inconclusive and are not listed. Many of the other results were omitted from the sample, so actives are more common in it than they were.
Provide the reading as a plain figure in %.

> print(dat)
                                   molecule  value
1  Cc1ccc(NC(=O)C2CC2c2ccccc2)cc1 (stereo not given)  -65.1
2       COC(=O)c1c(NC(=O)c2cccs2)sc2c1CCCC2   -128
3  Cc1[nH]c(=O)c(C(=O)/C=C/c2ccccc2)c2c1CCCC2   -146

Look up and state reported activity score for S=c1[nH]nc(-c2cccnc2)n1/N=C/C(Cl)=C\c1ccccc1 -177
